The measurements presented in this section are drawn from patent US10793568B2.

# assay.target: ligand binding domain of human FXR (Homo sapiens (Human))
# Sequence (Q96RI1 262-486): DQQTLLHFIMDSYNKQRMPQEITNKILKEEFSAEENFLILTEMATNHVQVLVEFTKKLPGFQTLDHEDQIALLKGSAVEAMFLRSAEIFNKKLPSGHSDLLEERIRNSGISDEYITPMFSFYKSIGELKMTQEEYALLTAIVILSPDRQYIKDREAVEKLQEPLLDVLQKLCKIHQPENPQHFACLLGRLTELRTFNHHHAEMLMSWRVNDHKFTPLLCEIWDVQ
# test.protocol: FXR ligand binding assay (LanthaScreen TR-FRET, SRC2-2 peptide recruitment)
# assay.conditions: -log EC50, concentration required to produce 50% activation
outcome.measure: pEC50
Number, no unit, nothing else.

| compound | pEC50 |
| --- | --- |
| O=C(O)c1cc(OCC(F)(F)F)c2nc(N3C[C@@H]4C[C@H]3C[C@H]4OCc3c(-c4c(Cl)cccc4Cl)noc3C3CC3)sc2c1 [Compound I-17] | 8.2 |
| O=C(O)c1cc(F)c2nc(N3C[C@@H]4C[C@H]3C[C@H]4OC(=O)c3c(-c4c(Cl)cccc4Cl)noc3C3CC3)sc2c1 [Compound I-1] | 7.4 |
| Cc1cc(C(=O)O)cc2sc(N3C[C@@H]4C[C@H]3C[C@H]4OCc3c(-c4c(F)cccc4Cl)noc3C3CC3)nc12 [Compound I-262] | 8.6 |
| O=C(NS(=O)(=O)C1CC1)c1ccc([N+]2([O-])C[C@@H]3C[C@H]2C[C@H]3OCc2c(-c3c(Cl)cccc3Cl)noc2C2CC2)cc1 (stereo partly drawn) [Compound I-234] | 8.1 |
| NS(=O)(=O)[C@@H]1CCC[C@H]1OC(=O)c1ccc(N2C(=O)[C@@H]3C[C@H]2C[C@H]3OCc2c(-c3c(Cl)cccc3Cl)noc2C2CC2)cc1F [Compound I-347] | 8.5 |

input: Look up pEC50 of CS(=O)(=O)NC(=O)c1ccc(N2C[C@@H]3C[C@H]2C[C@H]3OC(=O)c2c(-c3c(Cl)cccc3Cl)noc2C2CC2)c(F)c1 [Compound I-48] and report it.
output: 7.6

input: Look up pEC50 of O=C(O)c1cc(C2CCC2)c2nc(N3C[C@@H]4C[C@H]3C[C@H]4OCc3c(-c4c(Cl)cccc4Cl)noc3C3CC3)sc2c1 [Compound I-249] and report it.
output: 8.4

input: Look up pEC50 of O=C(O)c1ccc(N2C(=O)[C@@H]3C[C@H]2C[C@H]3OCc2c(-c3c(Cl)cccc3Cl)noc2C2CC2)cc1 [Compound I-244] and report it.
output: 8.4

input: Look up pEC50 of O=C(O)c1cc(F)c2nc(N3C[C@@H]4C[C@H]3C[C@H]4OC(=O)c3c(-c4c(Cl)cccc4Cl)noc3C3(F)CC3)sc2c1 [Compound I-10] and report it.
output: 7

input: Look up pEC50 of O=C(O)c1cc(C2CCC2)c2nc(N3C[C@@H]4C[C@H]3C[C@H]4OCc3c(C4CCC5(CC4)CC5)noc3C3CC3)sc2c1 [Compound I-282] and report it.
output: 7.4

input: Look up pEC50 of Cc1cccc(Cl)c1-c1noc(C2CC2)c1CO[C@@H]1C[C@@H]2C[C@H]1CN2c1nc2c([C@H]3CCOC3)cc(C(=O)O)cc2s1 [Compound I-272] and report it.
output: 8.4

input: Look up pEC50 of O=C(O)c1cc(OCC(F)(F)F)c2nc(N3C[C@@H]4C[C@H]3C[C@H]4OC(=O)c3c(-c4c(Cl)cccc4Cl)noc3C3CC3)sc2c1 [Compound I-7] and report it.
output: 7.4

input: Look up pEC50 of O=C(O)c1cc(F)c2nc(N3C[C@@H]4C[C@H]3C[C@H]4OCc3c(-c4c(Cl)cccc4Cl)noc3C3(F)CC3)sc2c1 [Compound I-24] and report it.
output: 7.9

input: Look up pEC50 of O=C(O)CCc1ccc(N2C[C@@H]3C[C@H]2C[C@H]3OCc2c(-c3c(Cl)cccc3Cl)noc2C2CC2)c(F)c1 [Compound I-154] and report it.
output: 8.6
